target: N2.6; assay: FP
Where no end group is shown, it is not given here.
parameter measured: pKd
Numbers only, as −log10 of the molar value.

Ask | What value of pKd has been reported for the following binder? GYQDYEPEA (also: TAMRA fluorophore, position not given here) [TAMRA-labeled α-synuclein peptide]
Reply | 7.60
